# assay: Aqueous solubility of compound at pH 1.2 incubated for 4 hrs
# Assay type: physicochemical
# protocolConditions: aqueous medium
metricName: solubility at 4 h
# number then unit; no other words

query: Recorded solubility at 4 h of O=C1CC(c2cc(Cl)c(O)c(Cl)c2)Oc2cc(O)cc(O)c21 (stereo unspecified) , please.
result: 0.66 µM

====

# assay: Drug concentration in Sprague-Dawley rat eye ball at 1 mg/kg, po after 8 hrs by LC-MS/MS anlaysis
# Assay type: ADME, organism-based, Eyeball of camera-type eye
# protocolConditions: read-out: Ct
metricName: concentration at 8 h

query: Look at this compound and give its reported concentration at 8 h. O=C1CC(c2cc(Cl)c(O)c(Cl)c2)Oc2cc(O)cc(O)c21 (stereo unspecified)
result: 37.1 nM

====

# assay: Drug concentration in Sprague-Dawley rat plasma at 1 mg/kg, po after 8 hrs by LC-MS/MS anlaysis
# Type: ADME, organism-based
metricName: concentration at 8 h (nM)
Please state the figure in nM; there is no need to write the unit.

query: Quick one: concentration at 8 h of O=C1CC(c2cc(Cl)c(O)c(Cl)c2)Oc2cc(O)cc(O)c21 (stereo unspecified) ?
result: 267

====

# assay: Drug concentration in Sprague-Dawley rat brain at 1 mg/kg, iv after 8 hrs by LC-MS/MS anlaysis
# Assay type: ADME, organism-based
# protocolConditions: read-out: Ct
metricName: concentration at 8 h

query: Item under review: O=C1CC(c2cc(Cl)c(O)c(Cl)c2)Oc2cc(O)cc(O)c21 (stereo unspecified) . Reported concentration at 8 h?
result: 53.1 nM

====

# assay: Drug concentration in rat plasma at 1.82 mg/kg, po
# Assay type: ADME, organism-based
# protocolConditions: in vivo
metricName: concentration (nM)
Number only, in nM; omit the unit.

query: Any idea what its concentration is? The compound is `O=C1C[C@@H](c2ccc(O)cc2)Oc2cc(O)cc(O)c21`
result: 1500

====

# Test system: Transthyretin (Homo sapiens), P02766 [V50M]
# assay: Binding affinity to TTR V30M mutant (unknown origin) expressed in Escherichia coli assessed as change in enthalpy by ITC assay
Tag: Satisfied if measured deltaH is not below -60 kJ/mol, Not satisfied if it is.

Example results:
compound	discreteLabel
O=C1CC(c2cc(Cl)c(O)c(Cl)c2)Oc2cc(O)cc(O)c21 (stereo unspecified)	Not satisfied
O=C1CC(c2ccc(O)c(Cl)c2)Oc2cc(O)cc(O)c21 (stereo unspecified)	Satisfied
O=C1CC(c2cc(Cl)cc(Cl)c2)Oc2cc(O)cc(O)c21 (stereo unspecified)	Satisfied
O=C1C[C@@H](c2ccc(O)cc2)Oc2cc(O)cc(O)c21 [NARINGENIN]	Satisfied
O=C1CC(c2cc(Cl)c(O)c(Cl)c2)Oc2cc(O)ccc21 (stereo unspecified)	Satisfied

With those in mind, consider the next compound.
query: # bool: deltaH of O=C1CC(c2cc(Cl)c(O)c(Cl)c2)Oc2cccc(O)c21 (stereo unspecified) >= -60 kJ/mol
result: Satisfied

====

# assay: Ratio of drug concentration in Sprague-Dawley rat brain to plasma at 1 mg/kg, iv after 8 hrs by LC-MS/MS analysis
# Format: ADME, organism-based
metricName: Kp at 8 h
// return just the number, without any unit appended

query: What Kp at 8 h value was documented for this compound, O=C1CC(c2cc(Cl)c(O)c(Cl)c2)Oc2cc(O)cc(O)c21 (stereo unspecified) ?
result: 0.074
